Below are IC50 values recorded for MTP (Homo sapiens, UniProt P55157).

{"columns": ["chem-smiles", "comparison-sign", "IC50 [nM]"],
 "data": [
  ["CC(C)[C@@H](NC(=O)[C@@]1(c2ccccc2)CC[C@H](C(=O)N2CCC(NC(=O)c3cccn(C)c3=O)CC2)c2ccccc21)C(=O)OC(C)(C)C", "=", 755],
  ["Cn1cccc(C(=O)NC2CCN(C(=O)[C@H]3CC[C@@](C(=O)N[C@@H](COC(C)(C)C)C(=O)OC(C)(C)C)(c4ccccc4)c4ccccc43)CC2)c1=O", "=", 697],
  ["CCOC(=O)CC[C@H](NC(=O)[C@@]1(c2ccccc2)CC[C@H](C(=O)N2CCC(NC(=O)c3cccn(C)c3=O)CC2)c2ccccc21)C(=O)OCC", "=", 776],
  ["CCOC(=O)CCCNC(=O)[C@@]1(c2ccccc2)CC[C@H](C(=O)N2CCC(NC(=O)c3cccn(C)c3=O)CC2)c2ccccc21", ">", 100]
]}

---

Below are IC50 values recorded for MTP (Homo sapiens, UniProt P55157).
quantity-name: IC50 (nM)

{"columns": ["molecule", "target-entity", "result-unit", "comparison-sign", "quantitative-result"],
 "data": [
  ["CCOC(=O)[C@]1(c2ccccc2)CC[C@@H](C(=O)N2CCN(C(=O)c3ccc(C)cc3-c3ccc(C(F)(F)F)cc3)CC2)c2ccccc21", "MTP (Homo sapiens, UniProt P55157)", "nM", ">", 100],
  ["COc1ccccc1C(=O)NC1CCN(C(=O)[C@H]2CC[C@@](C(=O)N[C@H](C(=O)O)c3ccccc3)(c3ccccc3)c3ccccc32)CC1", "MTP (Homo sapiens, UniProt P55157)", "nM", ">", 10000],
  ["Cn1cccc(C(=O)NC2CCN(C(=O)C3CC[C@@](C(=O)NCC(=O)OC(C)(C)C)(c4ccccc4)c4ccccc43)CC2)c1=O (some centres unmarked)", "MTP (Homo sapiens, UniProt P55157)", "nM", "=", 366],
  ["Cn1cccc(C(=O)NC2CCN(C(=O)[C@H]3CC[C@@](C(=O)N[C@@H](Cc4ccccc4)C(=O)O)(c4ccccc4)c4ccccc43)CC2)c1=O", "MTP (Homo sapiens, UniProt P55157)", "nM", ">", 10000],
  ["CCOC(=O)[C@H](CO)NC(=O)[C@@]1(c2ccccc2)CC[C@H](C(=O)N2CCC(NC(=O)c3ccccc3OC)CC2)c2ccccc21", "MTP (Homo sapiens, UniProt P55157)", "nM", "=", 493],
  ["CCNC(=O)[C@]1(c2ccccc2)CC[C@@H](C(=O)N2CCC(NC(=O)c3ccccc3OC)CC2)c2ccccc21 (racemic) [Co. No. 7]", "MTP (Homo sapiens, UniProt P55157)", "nM", "=", 6.47],
  ["CCNC(=O)[C@]1(c2ccccc2)CC[C@@H](C(=O)N2CC[C@@H](NC(=O)c3cc(Cl)c(N)cc3OC)[C@@H](OC)C2)c2ccccc21", "MTP (Homo sapiens, UniProt P55157)", "nM", "=", 60.3],
  ["COc1ccccc1C(=O)NC1CCN(C(=O)[C@H]2CC[C@@](C(=O)N[C@@H](Cc3ccc(O)cc3)C(=O)OC(C)(C)C)(c3ccccc3)c3ccccc32)CC1", "MTP (Homo sapiens, UniProt P55157)", "nM", "=", 163]
]}

Each recorded value in this set is attributed to patent US8114880B2.
